B1: LCOR (parent)
chain: PCAGSTSLSHSPGCSSTQGNGRPG

variants of: B1; experiment: protein stability index of a GFP-peptide fusion (GPS, HEK-293T) (PSI 1-6); higher = more stable; details: c terminus: a fixed tail appended;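 further: lentivirally expressed fusions sorted by FACS into six bins by GFP to DsRed ratio, PSI derived from sequencing read proportions per bin multiplied by bin number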
Hi there, I'd appreciate the recorded protein stability index for every entry that follows.
Numbers only.

Below are worked cases with known answers.
> print(dat)
    mut  assay.result
1  S15A          2.91
2   S5E          3.94
3   S5A          2.98
4  P12T           4.1
5  S16Q          3.03

Working through the 2 variants below one at a time, give protein stability index for each.
1. A3H
2. S11D

[4, 4]
